Recorded Ki by entry
# System name: Solute carrier family 15 member 2 (Homo sapiens, UniProt Q16348)
# Sequence (Q16348 whole entry): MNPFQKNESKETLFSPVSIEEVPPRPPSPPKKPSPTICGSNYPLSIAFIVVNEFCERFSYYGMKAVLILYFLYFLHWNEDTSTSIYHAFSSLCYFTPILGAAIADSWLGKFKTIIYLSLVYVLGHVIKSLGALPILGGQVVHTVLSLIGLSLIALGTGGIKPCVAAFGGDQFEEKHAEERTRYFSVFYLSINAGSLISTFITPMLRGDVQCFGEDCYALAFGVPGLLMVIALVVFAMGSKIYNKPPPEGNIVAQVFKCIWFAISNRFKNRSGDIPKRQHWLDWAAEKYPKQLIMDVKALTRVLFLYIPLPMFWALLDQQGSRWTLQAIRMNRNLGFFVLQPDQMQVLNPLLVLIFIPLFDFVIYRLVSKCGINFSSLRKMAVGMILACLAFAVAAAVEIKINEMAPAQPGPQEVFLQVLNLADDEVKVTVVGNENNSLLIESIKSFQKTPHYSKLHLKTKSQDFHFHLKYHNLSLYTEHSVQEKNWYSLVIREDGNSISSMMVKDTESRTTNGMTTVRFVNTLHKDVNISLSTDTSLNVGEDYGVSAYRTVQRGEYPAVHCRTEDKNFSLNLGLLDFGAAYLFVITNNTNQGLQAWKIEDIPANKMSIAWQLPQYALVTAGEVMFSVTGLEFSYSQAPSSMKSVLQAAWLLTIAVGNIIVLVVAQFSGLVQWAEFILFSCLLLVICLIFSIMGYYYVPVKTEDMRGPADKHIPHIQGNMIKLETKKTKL
# Assay explanation: Binding affinity to human PepT2 in SKTP cells
Where a SMILES comes first, the peptide text is derived from it.
Just the number please, in µM, no unit attached.

{"columns": ["Compound", "Ki (µM)"],
 "data": [
  ["CC(=O)CCC(=O)O", 230]
]}

Item: CC[C@H](C)[C@H](N)C(=O)N[C@@H](Cc1ccc(O)cc1)C(=O)O (H-Ile-Tyr-OH) | System: Solute carrier family 15 member 2 (Homo sapiens, UniProt Q16348) | Ki: 8

# value of Ki, Solute carrier family 15 member 2 (Homo sapiens, UniProt Q16348), item CSCC[C@H](NC(=O)[C@@H](N)CCSC)C(=O)O (H-Met-Met-OH) = 3
